Biological target: Aβ42 (Homo sapiens)
Sequence (P05067 672-713): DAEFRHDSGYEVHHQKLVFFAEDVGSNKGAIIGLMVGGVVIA
Assay: Th-T (thioflavin-T) assay of Aβ42 aggregation
Assay type: biochemical
Details: head suffix _10 (concentration 10); reading M77
quantityKind: Th-T fluorescence of Aβ42 (sheet Fig. 7a), mean of three wells

C=C1CCC2C(C)(CCC=C(C)C)C(O)CCC2(C)C1Cc1c(OC)oc(CO)c(C(=O)OC)c1=O (stereo not shown) [Compound 13]: 1.558
C=C1CC[C@@H]2[C@](C)(CC[C@H]3O[C@H](C=C(C)C)C[C@@]23C)[C@@H]1Cc1c(OC)oc(CO)c(C)c1=O [Compound 20]: 3.391
C=C1CC[C@@H]2[C@](C)(CC[C@H]3O[C@H](C=C(C)C)C[C@@]23C)[C@@H]1Cc1c(OC)oc(CO)c(C(=O)OC)c1=O [Compound 21]: 0.9791
C=C1CCC2C(C)(CCC=C(C)C)C(O)CCC2(C)C1Cc1c(OC)oc(CO)c(C)c1=O (stereo not shown) [Compound 12]: 3.239

###

Molecular target: Aβ42 (Homo sapiens)
Test: Th-T (thioflavin-T) assay of Aβ42 aggregation
Assay type: biochemical
Conditions: measurement M8; source data, Ab alone and No Ab as controls
Th-T assay plate reading, mean of three wells (Supplementary Fig. 47) vs 0.5: less than gives rule met; not less than gives rule not met.

C=C1CC[C@@H]2[C@](C)(CC[C@H]3O[C@H](C=C(C)C)C[C@@]23C)[C@@H]1Cc1c(OC)oc(CO)c(C(=O)OC)c1=O: rule met
C=C1CCC2C(C)(CCC=C(C)C)C(O)CCC2(C)C1Cc1c(O)c(C)c(C)oc1=O (centres unmarked) [Compound 4]: rule not met
C=C1CC[C@@H]2[C@](C)(CC[C@H]3O[C@H](C=C(C)C)C[C@@]23C)[C@@H]1Cc1c(O)c(C)c(C)oc1=O: rule not met
C=C1CCC2C(C)(CCC=C(C)C)C(O)CCC2(C)C1Cc1c(OC)oc(C)c(C)c1=O (centres unmarked) [Compound 15, viridoxin A hydrolysate]: rule met
CC(C)=CCC/C(C)=C/CC/C(C)=C/CC/C(C)=C/Cc1c(O)c(C)c(C)oc1=O: rule not met
C=C1CCC2C(C)(CCC=C(C)C)C(O)CCC2(C)C1Cc1c(OC)oc(C)c(C)c1=O (centres unmarked) [Compound 11]: rule met
C=C1CC[C@H]2[C@]3(C)C[C@H](C=C(C)C)O[C@H]3CC[C@]2(C)[C@@H]1Cc1c(O)c(C)c(C)oc1=O: rule not met

###

Molecular target: UniProt P05067
Assay: Th-T (thioflavin-T) assay of Aβ42 aggregation
Type: biochemical
Conditions: measurement M4; source data, Ab alone and No Ab as controls
quantityKind: Th-T assay plate reading, mean of three wells (Supplementary Fig. 47)

C=C1CC[C@@H]2[C@](C)(CC[C@H]3O[C@H](C=C(C)C)C[C@@]23C)[C@@H]1Cc1c(OC)oc(CO)c(C)c1=O [Compound 20]: 0.2884
C=C1CCC2C3(C)CC(C=C(C)C)OC3CCC2(C)C1Cc1c(OC)oc(C)c(C)c1=O (stereo not drawn) [Compound 23]: 0.2278
C=C1CCC2C(C)(CCC=C(C)C)C(O)CCC2(C)C1Cc1c(O)c(C)c(C)oc1=O (stereo not drawn) [Compound 9, higginsianin B]: 0.2764
C=C1CCC2C(C)(CCC=C(C)C)C(O)CCC2(C)C1Cc1c(OC)oc(CO)c(C(=O)OC)c1=O (stereo not drawn) [Compound 13]: 0.2253
C=C1CCC2C(C)(CCC=C(C)C)C(O)CCC2(C)C1Cc1c(OC)oc(CO)c(C)c1=O (stereo not drawn) [Compound 12]: 0.2666
C=C1CCC2C(C)(CCC=C(C)C)C(O)CCC2(C)C1Cc1c(OC)oc(C)c(C)c1=O (stereo not drawn) [Compound 11]: 0.2733
